# Test system: TCG codon, mammalian cells
# assay comment: TCG codon recoding efficiency of all amino acids (Table 1)
# Type: cell-based
# condition set: TCG codon recoding of the unnatural amino acid with the aaRS and mutation of the same table line; numeric values
List of Recoding rate (%) values.

# compound, Recoding rate (%)
data = [
    ("N[C@@H](CC(=O)OCc1ccccc1)C(=O)O", "75%"),
    ("COc1ccc(C[C@H](N)C(=O)O)cc1 [compound 332]", "73%"),
    ("CCOc1cc(C[Se]CC(N)C(=O)O)c([N+](=O)[O-])cc1OCC (stereo not drawn)", "59%"),
]

N[C@@H](Cc1ccc(C(=O)c2ccccc2)cc1)C(=O)O [compound 346] yielded Recoding rate (%) of 74%

Memo: `[N-]=[N+]=NCC(=O)Nc1ccc(C[C@H](N)C(=O)O)cc1` , reported Recoding rate (%): 84%

Memo: `N[C@@H](Cc1ccc2ccccc2c1)C(=O)O` , reported Recoding rate (%): 66%

Form: compound = N[C@@H](Cc1ccc(OS(=O)(=O)F)cc1)C(=O)O [compound 373] ; Recoding rate (%) = 68%

Record summary for N[C@@H](Cc1ccc(Br)cc1)C(=O)O [compound 366] : reported Recoding rate (%) = 63%

Memo: `CC(C)(C)Oc1ccc(C[C@H](N)C(=O)O)cc1` , reported Recoding rate (%): 72%

Sample `N[C@@H](Cc1c[nH]c2cccc(F)c12)C(=O)O` ; Recoding rate (%) observed: 82%

Lab book: Recoding rate (%) of `N[C@@H](Cc1ccc(Br)s1)C(=O)O` noted as 87%

Looking up `N[C@@H](Cc1ccc(O)c(I)c1)C(=O)O` , I found its Recoding rate (%) recorded as 73%

Recoding rate (%) in this record for `N[C@@H](Cc1c[nH]c2ccc(O)cc12)C(=O)O` : 75%

Recoding rate (%) reported for this compound `CCOc1cc(CSC[C@H](N)C(=O)O)c([N+](=O)[O-])cc1OCC` : 84%

Field Recoding rate (%) (entry `C=Cn1cc(C[C@H](N)C(=O)O)c2ccccc21` ) reads 59%

Input `C=CCOc1ccc(C[C@H](N)C(=O)O)cc1` . Output Recoding rate (%): 83%

Recoding rate (%) in this record for N[C@@H](Cc1csc2ccccc12)C(=O)O [compound 252] : 89%

Memo: `Cc1ccc2[nH]cc(C[C@H](N)C(=O)O)c2c1` , reported Recoding rate (%): 37%

Noted for `N[C@@H](Cc1cccs1)C(=O)O` : its Recoding rate (%) reads 72%

// field: Recoding rate (%); key: `N[C@@H](Cc1cccc(F)c1F)C(=O)O` ; value = 80? %

The measured Recoding rate (%) associated with `N[C@@H](Cc1cccc([N+](=O)[O-])c1)C(=O)O` reads 85%

---

# System: TCG codon, mammalian cells
# assay comment: TCG codon recoding efficiency of all amino acids (Table 1)
# Type: cell-based
# condition set: TCG codon recoding of the unnatural amino acid with the aaRS and mutation of the same table line; numeric values
# Text: Specific details are shown in Table 1 below, where “wt” represents the wild-type aminoacyl-tRNA synthetase, “mutation sites” indicate the positions and types of mutations related to specific unnatural amino acid binding on the wild-type aminoacyl-tRNA synthetase, and “unnatural amino acid” represents the unnatural amino acid corresponding to the mutated aminoacyl-tRNA synthetase. […]
Recorded Recoding rate (%) split into classes lower bin (below 70%), middle bin (70% to below 80%), upper bin (80% or more)

Study these solved cases before continuing.
# molecule, category
rows = [
    ("Nc1cc(C[C@H](N)C(=O)O)ccc1O [compound 361]", "lower bin"),
    ("CCCCCCCSC[C@H](N)C(=O)O [compound 383]", "middle bin"),
    ("N#Cc1cccc(C[C@H](N)C(=O)O)c1 [compound 306]", "middle bin"),
    ("N[C@@H](Cc1cc(Cl)ccc1Cl)C(=O)O [compound 246]", "upper bin"),
    ("COc1ccc(C[C@H](N)C(=O)O)cc1 [compound 369]", "upper bin"),
]

INPUT: Which class holds N[C@@H](CC(=O)OCc1ccccc1[N+](=O)[O-])C(=O)O [compound 261] ?
OUTPUT: lower bin

INPUT: Any idea which band CCCCCCSC[C@H](N)C(=O)O [compound 382] is in?
OUTPUT: upper bin

INPUT: Into which category would you place C#CCCCCSC[C@H](N)C(=O)O [compound 386] ?
OUTPUT: middle bin

INPUT: Form field 'band' for N[C@@H](Cc1ccc(I)cc1)C(=O)O [compound 297]
OUTPUT: lower bin

INPUT: Category lookup for the molecule CC(=O)N(C)CCCC[C@H](N)C(=O)O [compound 410]
OUTPUT: upper bin
